Tested On: LILRA4 (human (not printed on the sheet), UniProt P59901)
Sequence (P59901 24-446 limits assumed): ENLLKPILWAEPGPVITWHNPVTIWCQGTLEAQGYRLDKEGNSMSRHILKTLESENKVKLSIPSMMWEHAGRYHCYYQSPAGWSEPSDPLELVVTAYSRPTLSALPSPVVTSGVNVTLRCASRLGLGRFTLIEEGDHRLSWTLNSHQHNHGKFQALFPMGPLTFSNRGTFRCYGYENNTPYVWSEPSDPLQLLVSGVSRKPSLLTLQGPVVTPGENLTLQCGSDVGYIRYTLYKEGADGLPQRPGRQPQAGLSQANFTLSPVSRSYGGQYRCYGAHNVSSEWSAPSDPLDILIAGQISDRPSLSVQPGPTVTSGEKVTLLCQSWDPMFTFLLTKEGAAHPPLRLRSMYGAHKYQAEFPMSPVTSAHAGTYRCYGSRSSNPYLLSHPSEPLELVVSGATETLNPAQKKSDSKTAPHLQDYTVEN
Test: LILR reporter cells on coated antibody, GFP positive (%)
Measured Endpoint: binding result

Record excerpt, results attached:
Binder	binding result
h193 antibody No. 27 (h193-H5 / h193-K1) (antibody, V domains shown) VH: EVQLVESGGGLVQPGGSLRLSCAASGFSLSSSYWISWVRQAPGKGLEWIGVIDSGSVGITYYATWAKGRFTISRDNSKNTLYLQMNSLRAEDTAVYYCARHGDNWALDLWGQGTLVTVSS VL: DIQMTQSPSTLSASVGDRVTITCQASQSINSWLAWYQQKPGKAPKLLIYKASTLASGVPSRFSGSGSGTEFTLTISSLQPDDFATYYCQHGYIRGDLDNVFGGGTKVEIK	no binding
h193 antibody No. 20 (h193-H3 / h193-K2) (antibody, V domains shown) VH: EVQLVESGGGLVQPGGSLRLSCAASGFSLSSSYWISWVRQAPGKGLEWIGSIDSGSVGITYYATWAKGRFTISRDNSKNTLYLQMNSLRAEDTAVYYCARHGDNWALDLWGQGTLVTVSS VL: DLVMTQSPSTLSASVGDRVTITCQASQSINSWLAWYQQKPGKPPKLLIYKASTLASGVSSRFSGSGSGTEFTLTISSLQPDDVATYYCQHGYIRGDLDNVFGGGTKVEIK	no binding
h193 antibody No. 36 (h193-H7 / h193-K2) (antibody, V domains shown) VH: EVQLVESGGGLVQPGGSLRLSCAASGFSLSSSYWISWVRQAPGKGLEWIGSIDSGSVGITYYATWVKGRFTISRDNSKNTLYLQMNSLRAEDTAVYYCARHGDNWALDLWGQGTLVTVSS VL: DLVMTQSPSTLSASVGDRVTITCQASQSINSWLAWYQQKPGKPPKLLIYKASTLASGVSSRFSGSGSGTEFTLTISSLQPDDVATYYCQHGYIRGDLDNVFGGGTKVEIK	no binding
h193 antibody No. 28 (h193-H5 / h193-K2) (antibody, V domains shown) VH: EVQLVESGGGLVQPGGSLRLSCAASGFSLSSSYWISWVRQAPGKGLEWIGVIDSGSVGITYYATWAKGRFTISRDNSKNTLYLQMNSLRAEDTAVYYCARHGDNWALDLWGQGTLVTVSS VL: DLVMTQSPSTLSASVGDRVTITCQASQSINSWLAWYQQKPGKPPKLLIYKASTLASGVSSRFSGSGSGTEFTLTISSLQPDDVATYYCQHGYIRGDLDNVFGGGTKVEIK	no binding
h193 antibody No. 19 (h193-H3 / h193-K1) (antibody, V domains shown) VH: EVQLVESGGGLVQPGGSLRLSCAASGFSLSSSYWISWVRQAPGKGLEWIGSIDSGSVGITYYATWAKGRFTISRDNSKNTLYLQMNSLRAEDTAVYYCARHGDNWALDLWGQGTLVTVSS VL: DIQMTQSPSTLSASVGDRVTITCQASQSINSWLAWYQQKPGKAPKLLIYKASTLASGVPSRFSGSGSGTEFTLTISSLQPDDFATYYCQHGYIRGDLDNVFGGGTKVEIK	no binding

query: Given the entry h193 antibody No. 32 (h193-H6 / h193-K2) (antibody, V domains shown) VH: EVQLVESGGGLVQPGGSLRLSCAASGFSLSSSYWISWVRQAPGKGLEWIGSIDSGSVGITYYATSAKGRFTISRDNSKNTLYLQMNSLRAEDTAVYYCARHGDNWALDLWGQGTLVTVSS VL: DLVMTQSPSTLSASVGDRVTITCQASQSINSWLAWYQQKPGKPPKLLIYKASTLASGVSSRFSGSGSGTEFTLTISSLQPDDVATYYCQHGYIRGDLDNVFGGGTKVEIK , report its measured binding result.
result: no binding

query: Given the entry h193 antibody No. 23 (h193-H4 / h193-K1) (antibody, V domains shown) VH: EVQLVESGGGLVQPGGSLRLSCAASGFSLSSSYWISWVRQAPGKGLEWVSSIDSGSVGITYYATWAKGRFTISRDNSKNTLYLQMNSLRAEDTAVYYCARHGDNWALDLWGQGTLVTVSS VL: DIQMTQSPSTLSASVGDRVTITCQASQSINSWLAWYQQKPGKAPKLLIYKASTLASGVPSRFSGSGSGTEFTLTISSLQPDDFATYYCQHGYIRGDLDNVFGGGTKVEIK , report its measured binding result.
result: no binding

query: Given the entry h193 antibody No. 24 (h193-H4 / h193-K2) (antibody, V domains shown) VH: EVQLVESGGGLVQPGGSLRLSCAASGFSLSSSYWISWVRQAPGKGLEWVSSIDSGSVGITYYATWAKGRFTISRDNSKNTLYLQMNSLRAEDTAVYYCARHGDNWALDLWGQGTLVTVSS VL: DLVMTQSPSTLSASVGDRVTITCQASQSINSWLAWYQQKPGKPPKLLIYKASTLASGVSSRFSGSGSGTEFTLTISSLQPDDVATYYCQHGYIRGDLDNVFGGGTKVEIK , report its measured binding result.
result: no binding

query: Given the entry h193 antibody No. 37 (h193-H7 / h193-K3) (antibody, V domains shown) VH: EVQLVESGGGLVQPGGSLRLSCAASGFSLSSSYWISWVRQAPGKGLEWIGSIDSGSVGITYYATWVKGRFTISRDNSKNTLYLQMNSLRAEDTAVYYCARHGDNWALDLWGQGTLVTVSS VL: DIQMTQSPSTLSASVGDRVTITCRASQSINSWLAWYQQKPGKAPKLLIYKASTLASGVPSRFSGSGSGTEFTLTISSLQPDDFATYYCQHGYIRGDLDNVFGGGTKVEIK , report its measured binding result.
result: no binding

Numbers sourced from patent US20210371518A1.
